TARGET_OF_ASSAY: human apelin receptor (Homo sapiens, UniProt P35414)
Construct: expressed in transfected cells
Sequence (P35414 whole entry): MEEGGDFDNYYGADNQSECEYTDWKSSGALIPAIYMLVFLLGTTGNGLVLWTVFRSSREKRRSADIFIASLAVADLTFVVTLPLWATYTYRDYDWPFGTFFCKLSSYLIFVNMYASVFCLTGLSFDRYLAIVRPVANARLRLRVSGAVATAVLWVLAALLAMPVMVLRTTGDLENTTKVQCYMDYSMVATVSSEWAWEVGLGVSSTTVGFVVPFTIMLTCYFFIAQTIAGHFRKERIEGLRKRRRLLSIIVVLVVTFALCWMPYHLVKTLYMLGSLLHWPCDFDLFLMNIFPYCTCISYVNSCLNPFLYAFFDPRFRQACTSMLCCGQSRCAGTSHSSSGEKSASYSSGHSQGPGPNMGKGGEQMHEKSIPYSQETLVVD
ASSAY_PROCEDURE: Determination of agonism on the human apelin receptor by a calcium fluorescence assay (FLIPR)
Format: cell-based
CONDITION_NOTES: HEK293 cells stably transfected with human apelin receptor and Giaq protein, Fluo-4 calcium fluorescence, read-out: EC50 (APJ agonism)
MEASUREMENT_KIND: pEC50
pEC50 here is simply -log10 of the concentration when that concentration is written in mol/L.

Completed entries (count: 5):
1) C[C@@H]1CCCC[C@H]1n1c(Cc2cccs2)nc2cc(C(=O)NC(CCC(F)(F)F)C(=O)O)ccc21 (some centres unmarked): 5.73
2) C[C@@H]1CCCC[C@H]1n1c(Cc2cccs2)nc2cc(C(=O)NC(CC(=O)O)CC3CCCCC3)ccc21 (single isomer, unassigned) [Example 456]: 6.82
3) CCC(CC)n1c(Cc2cccs2)nc2cc(C(=O)N[C@@H](CC(C)C)C(=O)NCCNS(C)(=O)=O)ccc21: 6.11
4) CCC(CC)n1c(Cc2cccs2)nc2cc(C(=O)NC(CC(C)C)C(N)=O)ccc21 (centres unmarked): 6.13
5) CCC(CC)n1c(Cc2cccs2)nc2cc(C(=O)N[C@@H](CC(C)C)C(=O)NCCCN3CCC(C)CC3)ccc21: 6.41

Give the measured pEC50 of CCC(CC)n1c(Cc2cccs2)nc2cc(C(=O)N[C@@H](CC(C)C)C(=O)N3CCC(N4CCCC(C)C4)CC3)ccc21 (some centres unmarked) .
5.92

Another molecule to check: CCC(CC)n1c(Cc2cccs2)nc2cc(C(=O)N[C@@H](CC(C)C)C(=O)N3CC4CC3CN4CC(C)C)ccc21 (some centres unmarked)
5.57

Another molecule to check: CCCC(CO)NC(=O)c1ccc2c(c1)nc(Cc1cccs1)n2C(CC)CC (centres unmarked)
6.04

* * *

TARGET_OF_ASSAY: human apelin receptor (Homo sapiens)
Construct: expressed in transfected cells
ASSAY_PROCEDURE: Determination of agonism on the human apelin receptor by a calcium fluorescence assay (FLIPR)
Format: cell-based
CONDITION_NOTES: HEK293 cells stably transfected with human apelin receptor and Giaq protein, Fluo-4 calcium fluorescence, read-out: EC50 (APJ agonism)
Measured log10(EC50) values are reported for all entries that follow.
Answers are given as log10 of EC50 in µM.

Completed entries (count: 2):
1. CCC(CC)n1c(Cc2cccs2)nc2cc(C(=O)N[C@H](CC(=O)O)CC(C)C)ccc21 [Example 95]: -1.02
2. CCC[C@H](NC(=O)c1ccc2c(c1)nc(Cc1cccs1)n2C(CC)CC)C(=O)O [Example 94]: -0.11

Give the measured log10(EC50) of CCC(CC)n1c(Cc2cccs2)nc2cc(C(=O)N[C@@H](CC(C)C)C(=O)NCC3CCN(C(C)c4ccccc4)C3)ccc21 (stereo partly drawn) [Example 353] .
-0.10

Another compound to check: CCC(CC)n1c(Cc2cccs2)nc2cc(C(=O)N[C@@H](CC(C)C)C(=O)Nc3ccc(OC)cc3)ccc21 [Example 265]
0.94

Another compound to check: CCC(CC)n1c(Cc2cccs2)nc2cc(C(=O)N[C@H](CO)CCSC)ccc21 [Example 188]
0.66

* * *

Measured pEC50 values are reported for all entries that follow.
TARGET_OF_ASSAY: human apelin receptor (Homo sapiens, UniProt P35414)
Construct: expressed in transfected cells
ASSAY_PROCEDURE: Determination of agonism on the human apelin receptor by a calcium fluorescence assay (FLIPR)
Format: cell-based
CONDITION_NOTES: HEK293 cells stably transfected with human apelin receptor and Giaq protein, Fluo-4 calcium fluorescence, read-out: EC50 (APJ agonism)
pEC50 here is simply -log10 of the concentration when that concentration is written in mol/L.

Give the measured pEC50 of C[C@@H]1CCCC[C@H]1n1c(Cc2cccs2)nc2cc(C(=O)NC(CC(=O)O)C3CCCCC3)ccc21 (stereo partly shown) [Example 57] .
6.32

# credit: patent US9156796B2
